Origin of the recorded values: patent US20210238260

Biological target: plasma purified human antithrombin III (AT-III), as complex with unfractionated heparin
Test: ratio of K0.5 to Catalyst Biosciences WT FIXa, AT-III/UFH inhibition
Observation Type: K0.5-mut/K0.5-wt
One number for each entry.

Incoming: K0.5-mut/K0.5-wt for FIXa-Y259F/K265T/Y345T (protein) chain 1: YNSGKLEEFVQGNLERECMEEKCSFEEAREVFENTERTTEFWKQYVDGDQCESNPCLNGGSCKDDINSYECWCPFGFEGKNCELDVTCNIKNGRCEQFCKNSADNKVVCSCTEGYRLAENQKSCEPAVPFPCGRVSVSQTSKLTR chain 2: VVGGEDAKPGQFPWQVVLNGKVDAFCGGSIVNEKWIVTAAHCVETGVKITVVAGEHNIEETEHTEQKRNVIRIIPHHNFNAAINTYNHDIALLELDEPLVLNSYVTPICIADKEYTNIFLKFGSGYVSGWGRVFHKGRSALVLQYLRVPLVDRATCLRSTKFTITNNMFCAGFHEGGRDSCQGDSGGPHVTEVEGTSFLTGIISWGEECAMKGKYGIYTKVSRYVNWIKEKTKLT ?
Outgoing: 0.3
